assay: Toxicity liver stage against HepG2, at 10uM; assay type: cell-based; parameters: test concentration 10 uM, cell line HepG2-A16-CD81EGFP; conditions: human, HepG2-A16-CD81EGFP cells; read-out: INHIBITION
ATTRIBUTE MEASURED: cytotoxicity at 10 µM (%)
Quick reminder: number only, in %, skip the unit.

COMPOUND: CC(C)=CCCC1(C)C=Cc2c(cc(C)n(CCC(=O)O)c2=O)O1 (stereo unspecified)
cytotoxicity at 10 µM / %: 3.46

IN: Dear colleague, please send me the reported cytotoxicity at 10 µM for CC(c1cncs1)N(C)Cc1ccc(CCC(C)(C)O)cc1 (stereo unspecified) when you can.
OUT: 4.68

IN: Dear colleague, please send me the reported cytotoxicity at 10 µM for Cc1cc(C)n(CC2CN(Cc3nc(-c4ccco4)no3)CCO2)n1 (stereo unspecified) when you can.
OUT: -6.58

IN: Dear colleague, please send me the reported cytotoxicity at 10 µM for O=C(CC1NC(N2CCc3ccccc32)=NC1=O)Nc1ccc(Cl)cc1 (stereo unspecified) when you can.
OUT: 1.54

IN: Dear colleague, please send me the reported cytotoxicity at 10 µM for CS(=O)(=O)N1CCC(OCCCc2ccccc2)C1 (stereo unspecified) when you can.
OUT: 8.13

IN: Dear colleague, please send me the reported cytotoxicity at 10 µM for O=C(NCC(O)c1ccc(F)cc1F)c1cccc(F)c1 (stereo unspecified) when you can.
OUT: 7.43

###

Reported cytotoxicity at 10 µM values for a set of compounds
assay: Toxicity liver stage against HepG2, at 10uM; format: cell-based; set-up: test concentration 10 uM, cell line HepG2-A16-CD81EGFP; conditions: human, HepG2-A16-CD81EGFP cells; read-out: INHIBITION
Answers without a unit are incomplete; give the number and then its unit.

COMPOUND: CCN(C)c1nccc(N2CCN[C@H]3CS(=O)(=O)C[C@H]32)n1
cytotoxicity at 10 µM: 7.85%

COMPOUND: Fc1ccc2[nH]c(C3CCCN3CCCn3cccn3)nc2c1 (stereo not drawn)
cytotoxicity at 10 µM: 0.154%

IN: Dear colleague, please send me the reported cytotoxicity at 10 µM for COC(=O)NCC(=O)N1CCC(Oc2cccc(C)c2)CC1 when you can.
OUT: -0.555%

IN: Dear colleague, please send me the reported cytotoxicity at 10 µM for Cc1n[nH]c2c1C(c1ccc3c(c1)OCCO3)SCC(=O)N2 (stereo not drawn) when you can.
OUT: -0.37%

IN: Dear colleague, please send me the reported cytotoxicity at 10 µM for OC1CCN(c2cncc(CCC3CCCN3)n2)CC1 (stereo not drawn) when you can.
OUT: -0.24%

###

assay: Toxicity liver stage against HepG2, at 10uM; type: cell-based; set-up: test concentration 10 uM, cell line HepG2-A16-CD81EGFP; settings: human, HepG2-A16-CD81EGFP cells; read-out: INHIBITION
ATTRIBUTE MEASURED: cytotoxicity at 10 µM (%)
Quick reminder: number only, in %, skip the unit.

Check out these entries, answers already filled in.
COMPOUND: Fc1cccc2[nH]c(CN3CCn4c(nnc4C4CC4)C3)nc12
cytotoxicity at 10 µM (%): -5.07

COMPOUND: c1csc(CN2CCC3(CC2)CCN(CC2CC2)CC3)n1
cytotoxicity at 10 µM (%): 3.17

COMPOUND: CNc1ncc(C(=O)N2CCOC(C(=O)N3CCCCCC3)C2)cn1 (stereo unspecified)
cytotoxicity at 10 µM (%): -8.29

COMPOUND: CNc1nc(CS(=O)(=O)c2ccccc2)cs1
cytotoxicity at 10 µM (%): 13

COMPOUND: Cc1cc(-c2nn3c(C4CC4)nnc3s2)on1
cytotoxicity at 10 µM (%): -2.37

IN: Dear colleague, please send me the reported cytotoxicity at 10 µM for O=c1[nH]c(-c2ccccn2)nc2c1CCN(Cc1cccc(O)c1)C2 when you can.
OUT: -17.6

IN: Dear colleague, please send me the reported cytotoxicity at 10 µM for CC(C)COCC(NC(=O)c1ccccn1)c1ccco1 (stereo unspecified) when you can.
OUT: -7.52

IN: Dear colleague, please send me the reported cytotoxicity at 10 µM for CNC(=O)c1ccc(C2CN(CC(=O)N(C)C)CCO2)nc1 (stereo unspecified) when you can.
OUT: 7.15

IN: Dear colleague, please send me the reported cytotoxicity at 10 µM for O=C(c1ccco1)N1CCCC12CCN(c1ncccn1)CC2 when you can.
OUT: 3.23

IN: Dear colleague, please send me the reported cytotoxicity at 10 µM for COC(=O)c1ccc(N2CCN(C(=O)c3cnn(C)c3)C(C)C2)cc1 (stereo unspecified) when you can.
OUT: -11.5

IN: Dear colleague, please send me the reported cytotoxicity at 10 µM for Cc1cnn(CCNCc2ccccc2OCc2ccncc2)c1 when you can.
OUT: -16.1

IN: Dear colleague, please send me the reported cytotoxicity at 10 µM for Nc1ccnc(N2CCCC(CCc3ccccc3)(C(=O)O)C2)n1 (stereo unspecified) when you can.
OUT: 3.33

IN: Dear colleague, please send me the reported cytotoxicity at 10 µM for O=C(c1cnccn1)N1C[C@@H]2OCC(=O)N(CC3CCCCC3)[C@@H]2C1 when you can.
OUT: -4.97

IN: Dear colleague, please send me the reported cytotoxicity at 10 µM for Cc1cccc(OCCN2CCC(c3ccnn3CCO)CC2)c1 when you can.
OUT: -4.87

IN: Dear colleague, please send me the reported cytotoxicity at 10 µM for CCc1nc(C2CCCN2C(=O)CCNS(C)(=O)=O)no1 (stereo unspecified) when you can.
OUT: -1.77

IN: Dear colleague, please send me the reported cytotoxicity at 10 µM for O=C(c1cc(Cl)c(Br)[nH]1)N1CCN(Cc2ccco2)CC1 when you can.
OUT: -55.7

IN: Dear colleague, please send me the reported cytotoxicity at 10 µM for Cc1cccnc1C(=O)N1CCC(Cc2cnc3[nH]ccc3c2)CC1 when you can.
OUT: 1.85

IN: Dear colleague, please send me the reported cytotoxicity at 10 µM for CN(C(=O)c1ccccn1)c1nnc(C2CCOC2)s1 (stereo unspecified) when you can.
OUT: 0.07

IN: Dear colleague, please send me the reported cytotoxicity at 10 µM for CCc1ncc(CNC2CC(=O)N(CCc3cccc(Cl)c3)C2)cn1 (stereo unspecified) when you can.
OUT: -3.62

IN: Dear colleague, please send me the reported cytotoxicity at 10 µM for CCOCC1CN(C(=O)Cc2ccsc2)Cc2ccnn2C1 (stereo unspecified) when you can.
OUT: -71.4

IN: Dear colleague, please send me the reported cytotoxicity at 10 µM for O=C(c1ccncc1)N1C[C@@H]2CCN(c3cccnc3)C[C@@H]2C1 when you can.
OUT: -71.5

IN: Dear colleague, please send me the reported cytotoxicity at 10 µM for CCc1nc(C2CCCN2C(=O)CCc2nc(C(C)(C)C)no2)no1 (stereo unspecified) when you can.
OUT: -0.819

IN: Dear colleague, please send me the reported cytotoxicity at 10 µM for CCOCCNC(=O)c1ccn(S(=O)(=O)c2ccc(C)cc2)c1 when you can.
OUT: -3.18

IN: Dear colleague, please send me the reported cytotoxicity at 10 µM for CCN(CC1CCCO1)S(=O)(=O)c1cc(NC(C)=O)ccc1C (stereo unspecified) when you can.
OUT: 1.82

IN: Dear colleague, please send me the reported cytotoxicity at 10 µM for Cc1cc(C(=O)N2CCC3(CC2)C(=O)N(C)CCN3CC(C)C)c(C)o1 when you can.
OUT: -112

IN: Dear colleague, please send me the reported cytotoxicity at 10 µM for O=C(Nc1ccc(F)cc1)N1CCC2(CCC(=O)N(C3CC3)C2)CC1 when you can.
OUT: 5.54
